Biological target: T1, Human ROR1-ECD-his (human, UniProt Q01973 30-406)
T1 construct: extracellular domain; bought, Acrobiosystems RO1-H522y; also called hROR1-ECD-his; hROR1 ECD-his
T1 sequence (Q01973 30-406): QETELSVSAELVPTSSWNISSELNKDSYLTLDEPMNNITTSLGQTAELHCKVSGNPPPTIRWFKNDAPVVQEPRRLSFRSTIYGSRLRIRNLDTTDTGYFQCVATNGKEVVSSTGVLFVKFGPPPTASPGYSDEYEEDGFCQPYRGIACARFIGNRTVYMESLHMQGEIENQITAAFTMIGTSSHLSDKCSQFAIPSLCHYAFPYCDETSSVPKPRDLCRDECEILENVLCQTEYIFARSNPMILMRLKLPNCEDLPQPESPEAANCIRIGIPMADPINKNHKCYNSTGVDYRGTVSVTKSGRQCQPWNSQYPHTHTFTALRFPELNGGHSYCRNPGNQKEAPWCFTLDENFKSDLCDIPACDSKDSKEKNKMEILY
Assay: ELISA, plate coated with hROR1 ECD-his
Value kind: ELISA signal (called MFI)

Using the record for PR001361 (antibody, V domains shown, fully human IgG1, kappa) VH: QVQLVQSGGGVVQPGRSLRLSCTASGFTFSRYGMLWVRQAPGKGLEWVAVAWYDGVSEDYADSVKGRFTISRDNSMNTLSLQMNSLRAEDTAVYYCAREQARSFDLWGRGTLVTVSS VL: DIQLTQSPSTLSASVGDRVTITCRASQSINSWLAWYQQKPGKAPKLLIYKASSLESGVPSRFSGSGSGTEFTLTISSLQPDDFATYYCQQYKSYSPMYTFGQGTKVDIKR , report its ELISA signal (called MFI). 2.28

Consider the binder shown here: PR001416 (antibody, human IgG1, kappa, V domains shown, fully human IgG1, kappa) VH: QVQLVESGGGVVQPGRSLRLSCAASGFTFSTYGMHWVRQAPGKGLEWVAVIWYDGSDKDYADSVKGRFTISRDTSKNTLYLQMNSLRAEDTAVYYCAREQARSFDLWGRGTLVTVSS VL: DIVMTQSPSTLSASVGDRVTITCRASQTINNWLAWYQQKPGKAPKLLIYKASSLESGVPSRFSGSGSGTEFTLTISSLQPDDFATYYCQQYNSYSPMYTFGQGTKVEIKR What is its recorded ELISA signal (called MFI)? 2.45

Which ELISA signal (called MFI) value belongs to PR001370 (antibody, V domains shown, fully human IgG1, kappa) VH: EVQLLESGGGVVQPGRSLRLSCAASGFTFSSYGMHWVRQAPGKGLEWVAVKWYDGISQNFADSVKGRFTISRDNSKNTLYLQMNSLRAEDTAVYYCARDLARSFDLWGRGTLVTVSS VL: DIVMTQSPSTLSASVGDRVTITCRASQSINNWLAWYQQKPGKAPKLLIYKASSLESGVPSRFSGSGSGTEFTLTISSLQPDDFATYYCQQYNSYSPMYTFGQGTKVDIKR ? 2.53

So what does the record say about ELISA signal (called MFI) for PR001358 (antibody, human IgG1, kappa, V domains shown, fully human IgG1, kappa) VH: QVQLVQSGGGVVQPGRSLRLSCAASGFTFSSYAMHWVRQAPGKGLEWVAIMWYDGSNTDYADSVKGRFTISRDTSKNTLFLQMNSLRAEDTAVYYCAREQARSFDLWGRGTLVTVSS VL: DIVMTQSPSTLSASVGDRVTITCRASQSINSWLAWYQQKPGKAPKLLIYKASNLESGVPSRFSGSGSGTEFTLTISSLQPDDFATYYCQQYKSYSPMYTFGQGTKVDIKR ? 2.47

Which ELISA signal (called MFI) is reported for this binder? PR001352 (antibody, human IgG1, kappa, V domains shown, fully human IgG1, kappa) VH: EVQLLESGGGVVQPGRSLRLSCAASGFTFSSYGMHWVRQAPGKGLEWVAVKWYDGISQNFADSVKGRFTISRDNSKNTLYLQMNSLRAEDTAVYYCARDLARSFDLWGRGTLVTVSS VL: DIQLTQSPSSLSASVGDRVTITCRASQTINNWLAWYQQKPGKAPKLLIYKASSLESGVPSRFSGSGSGTEFTLTISSLQPDDFATYYCQQYNSYSPMYTFGQGTKVEIKR 2.48
